So I've got a bunch of compounds here, and I need their Population Normal (%) values.
# System: Fibroblast
# ASSAY_OVERVIEW: Multiplex assay against human fibroblast
# Format: toxicity, cell-based
# CONDITION_INFO: 24 h, 1 µM, compound concentration 1 uM, replicate 2
Numbers only, in %.

Reference set, count: 2
compound="Cl.Cl.OCCOCCN1CCN(C(c2ccccc2)c2ccc(Cl)cc2)CC1 (stereo not given) [HYDROXYZINE HYDROCHLORIDE]" endpoint="Population Normal (%)" observed_result=94
compound=Cc1cc(O)c(-c2ccc([C@@H](C)CN(C)C)cc2)c2c1[nH]c(=O)c1sccc12 endpoint="Population Normal (%)" observed_result=90

The following compounds each have a reported value; give each one's Population Normal (%).
1. Cc1cc(NC(=O)NCCN2CCC(O)(Cc3ccccc3)CC2)c2ccccc2n1
2. COc1cc2nc(N3CCN(C(=O)c4ccco4)CC3)nc(N)c2cc1OC.Cl [PRAZOSIN HYDROCHLORIDE]

1. 93
2. 92

Please indicate recorded Population Normal (%) of C[C@H](NC(=O)CNC(=O)c1cccc(Cl)c1)c1ccccc1 measured with Fibroblast.
96

###

# System: U2OS
# ASSAY_OVERVIEW: Multiplex assay against U2OS
# Format: toxicity, cell-based
# CONDITION_INFO: human, 48 h, 1 µM, compound concentration 1 uM, replicate 1
Non-standard residues stand in square brackets, D forms with d. Residues, ends and D or L forms follow the SMILES beside them.
The label depends only on Population Hoechst High Intensity Objects (%): met if it is at least 2%, not met if it is smaller.

molecule=C[C@H](NC(=O)CNC(=O)c1cccc(Cl)c1)c1ccccc1 test_target=U2OS category_label=met
molecule="CC(C)C[C@@H]1NC(=O)[C@@H](C(C)C)NC(=O)[C@@H]2CCCN2C(=O)[C@@H](CC(=O)O)NC(=O)[C@@H](Cc2c[nH]c3ccccc23)NC1=O [BQ-123] (cyclo(L[dW][dD]P[dV]))" test_target=U2OS category_label="not met"
molecule=Nc1nc(-c2ccco2)c2cnn(Cc3ccccc3F)c2n1 test_target=U2OS category_label="not met"
molecule="Cc1ccc(OCC(O)C(C)NC(C)C)c2c1CCC2.Cl (configuration not stated)" test_target=U2OS category_label="not met"
molecule="O=C(NCCNCC(O)COc1ccc(O)cc1)N1CCOCC1.O=C(NCCNCC(O)COc1ccc(O)cc1)N1CCOCC1.O=C(O)/C=C/C(=O)O (configuration not stated) [XAMOTEROL FUMARATE]" test_target=U2OS category_label="not met"

Threshold query (Population Hoechst High Intensity Objects (%) >= 2%) on Cc1c(Cc2ccc3ccccc3n2)c2cc(F)ccc2n1CC(=O)O [TIMAPIPRANT]
not met

Threshold query (Population Hoechst High Intensity Objects (%) >= 2%) on CCCCCCNC(=O)Nc1ccc(S(=O)(=O)Nc2ccc(CCNC[C@H](O)COc3ccc(O)cc3)cc2)cc1 [L-755507]
not met

Threshold query (Population Hoechst High Intensity Objects (%) >= 2%) on S=C(NCCCc1c[nH]cn1)NCCCN(Cc1ccc(Cl)c(Cl)c1)c1ccc(Br)cn1
not met

Threshold query (Population Hoechst High Intensity Objects (%) >= 2%) on O=c1nc2[nH]c3ccccc3nc-2c(=O)[nH]1 [ALLOXAZINE]
not met

Threshold query (Population Hoechst High Intensity Objects (%) >= 2%) on CN(C)C/C=C/C(=O)Nc1ccc(C(=O)N2CCCC(Nc3ncc(Cl)c(-c4c[nH]c5ccccc45)n3)C2)cc1 (configuration not stated)
met

Threshold query (Population Hoechst High Intensity Objects (%) >= 2%) on CN1CCN(c2ccc(Nc3c4ccccc4nc4ccccc34)cc2)CC1.Cl.Cl.O
met

Threshold query (Population Hoechst High Intensity Objects (%) >= 2%) on Cn1cc(C(=O)OCC2CCN(CCNS(C)(=O)=O)CC2)c2ccccc21
not met
